- System: NCI-H23
- measurement_protocol: relative viability (nuclei count vs DMSO), 5 days (fraction); higher = more cells survive
- run_conditions: first compound 2.53 µM
quantity_measured: relative viability

compound	quantity_measured	readout_number
O=c1[nH]c2ccccc2n1C1CCN(CCCC(c2ccc(F)cc2)c2ccc(F)cc2)CC1 [Pimozide] + CS(=O)(=O)N1CCN(Cc2cc3nc(-c4cccc5[nH]ncc45)nc(N4CCOCC4)c3s2)CC1 [Pictilisib] (partner 1 µM)	relative viability	0.429
O=c1[nH]c2ccccc2n1C1CCN(CCCC(c2ccc(F)cc2)c2ccc(F)cc2)CC1 [Pimozide] + C[C@@H](Oc1cc(-c2cnn(C3CCNCC3)c2)cnc1N)c1c(Cl)ccc(F)c1Cl [Crizotinib] (partner 1 µM)	relative viability	0.573

---

Measured relative viability values are reported for all entries that follow.
- Tested on: NCI-H838
- measurement_protocol: relative viability (nuclei count vs DMSO), 5 days (fraction); higher = more cells survive
- run_conditions: first compound 0.1581 µM

molecule	relative viability
Nc1ccn([C@@H]2O[C@H](CO)[C@@H](O)[C@@H]2O)c(=O)n1 [Cytarabine] + COc1cc2c(Oc3ccc(NC(=O)C4(C(=O)Nc5ccc(F)cc5)CC4)cc3F)ccnc2cc1OCCCN1CCOCC1 [Foretinib] (partner 0.25 µM)	0.486
Nc1ccn([C@@H]2O[C@H](CO)[C@@H](O)[C@@H]2O)c(=O)n1 [Cytarabine] + C[C@@H](Oc1cc(-c2cnn(C3CCNCC3)c2)cnc1N)c1c(Cl)ccc(F)c1Cl [Crizotinib] (partner 1 µM)	0.339

---

- Tested on: HARA
- measurement_protocol: relative viability (nuclei count vs DMSO), 5 days (fraction); higher = more cells survive
- run_conditions: first compound 0.01581 µM
quantity_measured: relative viability

compound	result
Nc1ccn([C@@H]2O[C@H](CO)[C@@H](O)[C@@H]2O)c(=O)n1 [Cytarabine] + N=C(N)NC(=N)NCCc1ccccc1 [Phenformin] (partner 250 µM)	0.325
Nc1ccn([C@@H]2O[C@H](CO)[C@@H](O)[C@@H]2O)c(=O)n1 [Cytarabine] + CC1(C)CCC(c2ccc(Cl)cc2)=C(CN2CCN(c3ccc(C(=O)NS(=O)(=O)c4ccc(N[C@H](CCN5CCOCC5)CSc5ccccc5)c(S(=O)(=O)C(F)(F)F)c4)cc3)CC2)C1 [Navitoclax] (partner 0.5 µM)	0.593
Nc1ccn([C@@H]2O[C@H](CO)[C@@H](O)[C@@H]2O)c(=O)n1 [Cytarabine] + Nc1nc2[nH]cc(CCc3ccc(C(=O)N[C@@H](CCC(=O)O)C(=O)O)cc3)c2c(=O)[nH]1 [Pemetrexed] (partner 0.2 µM)	0.221
COc1cc2nccc(Oc3ccc(NC(=O)Nc4cc(C)on4)c(Cl)c3)c2cc1OC [Tivozanib] + C[C@@H](Oc1cc(-c2cnn(C3CCNCC3)c2)cnc1N)c1c(Cl)ccc(F)c1Cl [Crizotinib] (partner 1 µM)	1

---

Each entry below carries its recorded relative viability.
- Tested on: NCI-H650
- measurement_protocol: relative viability (nuclei count vs DMSO), 5 days (fraction); higher = more cells survive
- run_conditions: first compound 0.4 µM
quantity_measured: relative viability

compound	readout_number
Cc1sc2c(c1C)C(c1ccc(Cl)cc1)=N[C@@H](CC(=O)OC(C)(C)C)c1nnc(C)n1-2 [JQ1] + Nc1nc2[nH]cc(CCc3ccc(C(=O)N[C@@H](CCC(=O)O)C(=O)O)cc3)c2c(=O)[nH]1 [Pemetrexed] (partner 0.2 µM)	0.839
Cc1sc2c(c1C)C(c1ccc(Cl)cc1)=N[C@@H](CC(=O)OC(C)(C)C)c1nnc(C)n1-2 [JQ1] + CCNC(=O)c1noc(-c2cc(C(C)C)c(O)cc2O)c1-c1ccc(CN2CCOCC2)cc1 [Luminespib] (partner 0.01 µM)	0.546
Cc1sc2c(c1C)C(c1ccc(Cl)cc1)=N[C@@H](CC(=O)OC(C)(C)C)c1nnc(C)n1-2 [JQ1] + O=C(c1cc(Cc2n[nH]c(=O)c3ccccc23)ccc1F)N1CCN(C(=O)C2CC2)CC1 [Olaparib] (partner 8 µM)	0.273
Cc1sc2c(c1C)C(c1ccc(Cl)cc1)=N[C@@H](CC(=O)OC(C)(C)C)c1nnc(C)n1-2 [JQ1] + Cc1nc(Nc2ncc(C(=O)Nc3c(C)cccc3Cl)s2)cc(N2CCN(CCO)CC2)n1 [Dasatinib] (partner 0.075 µM)	0.328
Cc1sc2c(c1C)C(c1ccc(Cl)cc1)=N[C@@H](CC(=O)OC(C)(C)C)c1nnc(C)n1-2 [JQ1] + CC(C)C[C@H](NC(=O)[C@H](Cc1ccccc1)NC(=O)c1cnccn1)B(O)O [Bortezomib] (partner 0.002 µM)	0.432
Cc1sc2c(c1C)C(c1ccc(Cl)cc1)=N[C@@H](CC(=O)OC(C)(C)C)c1nnc(C)n1-2 [JQ1] + NC(=O)Nc1cc(-c2cccc(F)c2)sc1C(=O)N[C@H]1CCCNC1 [AZD7762] (partner 0.2 µM)	1
Cc1sc2c(c1C)C(c1ccc(Cl)cc1)=N[C@@H](CC(=O)OC(C)(C)C)c1nnc(C)n1-2 [JQ1] + Cc1nc(NC(=O)N2CCC[C@H]2C(N)=O)sc1-c1ccnc(C(C)(C)C(F)(F)F)c1 [Alpelisib] (partner 2 µM)	0.707

---

- Tested on: NCI-H1993
- measurement_protocol: relative viability (nuclei count vs DMSO), 5 days (fraction); higher = more cells survive
- run_conditions: first compound 0.05 µM
quantity_measured: relative viability

compound	readout_number
COc1cc2nccc(Oc3ccc(NC(=O)Nc4cc(C)on4)c(Cl)c3)c2cc1OC [Tivozanib] + CC(=O)c1c(C)c2cnc(Nc3ccc(N4CCNCC4)cn3)nc2n(C2CCCC2)c1=O [Palbociclib] (partner 0.5 µM)	0.638
COc1cc2nccc(Oc3ccc(NC(=O)Nc4cc(C)on4)c(Cl)c3)c2cc1OC [Tivozanib] + Cc1cc(Nc2cc(N3CCN(C)CC3)nc(Sc3ccc(NC(=O)C4CC4)cc3)n2)n[nH]1 [Tozasertib] (partner 0.1 µM)	0.568
COc1cc2nccc(Oc3ccc(NC(=O)Nc4cc(C)on4)c(Cl)c3)c2cc1OC [Tivozanib] + Cc1nc(Nc2ncc(C(=O)Nc3c(C)cccc3Cl)s2)cc(N2CCN(CCO)CC2)n1 [Dasatinib] (partner 0.075 µM)	0.692
COc1cc2nccc(Oc3ccc(NC(=O)Nc4cc(C)on4)c(Cl)c3)c2cc1OC [Tivozanib] + O=C(c1cc(Cc2n[nH]c(=O)c3ccccc23)ccc1F)N1CCN(C(=O)C2CC2)CC1 [Olaparib] (partner 8 µM)	0.988

---

- Test system: LOU-NH91
- measurement_protocol: relative viability (nuclei count vs DMSO), 5 days (fraction); higher = more cells survive
- run_conditions: first compound 0.05 µM
Define the label as Fulfilled when relative viability is strictly less than 0.7 and as Not fulfilled in all remaining cases.

molecule	class
COc1cc2nccc(Oc3ccc(NC(=O)Nc4cc(C)on4)c(Cl)c3)c2cc1OC [Tivozanib] + N=C(N)NC(=N)NCCc1ccccc1 [Phenformin] (partner 250 µM)	Not fulfilled
COc1cc2nccc(Oc3ccc(NC(=O)Nc4cc(C)on4)c(Cl)c3)c2cc1OC [Tivozanib] + NC(=O)Nc1cc(-c2cccc(F)c2)sc1C(=O)N[C@H]1CCCNC1 [AZD7762] (partner 0.2 µM)	Not fulfilled
COc1cc2nccc(Oc3ccc(NC(=O)Nc4cc(C)on4)c(Cl)c3)c2cc1OC [Tivozanib] + Cc1nc(Nc2ncc(C(=O)Nc3c(C)cccc3Cl)s2)cc(N2CCN(CCO)CC2)n1 [Dasatinib] (partner 0.075 µM)	Fulfilled
Nc1ccn([C@@H]2O[C@H](CO)[C@@H](O)[C@@H]2O)c(=O)n1 [Cytarabine] + O=C(c1cc(Cc2n[nH]c(=O)c3ccccc23)ccc1F)N1CCN(C(=O)C2CC2)CC1 [Olaparib] (partner 8 µM)	Not fulfilled
Nc1ccn([C@@H]2O[C@H](CO)[C@@H](O)[C@@H]2O)c(=O)n1 [Cytarabine] + CC(C)C[C@H](NC(=O)[C@H](Cc1ccccc1)NC(=O)c1cnccn1)B(O)O [Bortezomib] (partner 0.002 µM)	Fulfilled
Nc1ccn([C@@H]2O[C@H](CO)[C@@H](O)[C@@H]2O)c(=O)n1 [Cytarabine] + COc1cccc2cc(-c3nc([C@H]4CC[C@H](C(=O)O)CC4)n4ncnc(N)c34)[nH]c12 [OSI-027] (partner 0.5 µM)	Fulfilled
COc1cc2nccc(Oc3ccc(NC(=O)Nc4cc(C)on4)c(Cl)c3)c2cc1OC [Tivozanib] + Nc1ncn([C@H]2C[C@H](O)[C@@H](CO)O2)c(=O)n1 [Decitabine] (partner 2 µM)	Not fulfilled
COc1cc2nccc(Oc3ccc(NC(=O)Nc4cc(C)on4)c(Cl)c3)c2cc1OC [Tivozanib] + O=C(CCCCCCC(=O)Nc1ccccc1)NO [Vorinostat] (partner 1 µM)	Not fulfilled
Nc1ccn([C@@H]2O[C@H](CO)[C@@H](O)[C@@H]2O)c(=O)n1 [Cytarabine] + CC(=O)c1c(C)c2cnc(Nc3ccc(N4CCNCC4)cn3)nc2n(C2CCCC2)c1=O [Palbociclib] (partner 0.5 µM)	Fulfilled
